Tested on: U2OS
test_summary: Multiplex assay against U2OS
Assay type: toxicity, cell-based
applied_conditions: human, 24 h, 10 µM, compound concentration 10 uM, replicate 1
Non-standard residues stand in square brackets, D forms with d. Residues, ends and D or L forms follow the SMILES beside them.
property_name: Population Pyknosed Nuclei (%)
Response body: numeric value in %, unit text excluded.

For the compound CSc1nc(NC2CCCC2)c([N+](=O)[O-])c(NC2CCCC2)n1 [GS-39783] , the measured Population Pyknosed Nuclei (%) on U2OS was 6

For the compound `CN1CCC(C(=O)c2cccc(NC(=O)c3c(F)cc(F)cc3F)n2)CC1` , the measured Population Pyknosed Nuclei (%) on U2OS was 9

For the compound `C[C@H](NC(=O)CNC(=O)c1cccc(Cl)c1)c1ccccc1` , the measured Population Pyknosed Nuclei (%) on U2OS was 13

For the compound CCC(=O)OCC(=O)[C@@]1(OC(=O)CC)[C@@H](C)C[C@H]2[C@@H]3CCC4=CC(=O)C=C[C@]4(C)[C@@]3(Cl)[C@@H](O)C[C@@]21C [BECLOMETHASONE DIPROPIONATE] , the measured Population Pyknosed Nuclei (%) on U2OS was 18

For the compound `S=C(NCCCc1c[nH]cn1)NCCCN(Cc1ccc(Cl)c(Cl)c1)c1ccc(Br)cn1` , the measured Population Pyknosed Nuclei (%) on U2OS was 28

For the compound `CN(C)C(=O)Cn1cc(-c2ccc(-c3nnc4ccccn34)cc2)cn1` , the measured Population Pyknosed Nuclei (%) on U2OS was 11

For the compound CCn1c(-c2nc3cc(C(=O)N4CCCC(N)C4)ccc3n2C)cc2ccccc21.Cl (configuration not stated) , the measured Population Pyknosed Nuclei (%) on U2OS was 17

For the compound Cc1ccc(OCC(O)C(C)NC(C)C)c2c1CCC2.Cl (configuration not stated) , the measured Population Pyknosed Nuclei (%) on U2OS was 17

For the compound COc1c(Nc2ccc(S(C)(=O)=O)nc2C)ncnc1OC1CCN(C(=O)OC(C)C)CC1 [ADP-597] , the measured Population Pyknosed Nuclei (%) on U2OS was 8

For the compound `Cc1nn(C)c2nc(NNC(=O)Nc3cc(Cl)nc(Cl)c3)cc(C(C)C)c12` , the measured Population Pyknosed Nuclei (%) on U2OS was 31

For the compound `COCCn1c(C)c(C)s/c1=N\C(=O)C1C(C)(C)C1(C)C` , the measured Population Pyknosed Nuclei (%) on U2OS was 12

For the compound CN(C)C/C=C/C(=O)Nc1ccc(C(=O)N2CCCC(Nc3ncc(Cl)c(-c4c[nH]c5ccccc45)n3)C2)cc1 (configuration not stated) , the measured Population Pyknosed Nuclei (%) on U2OS was 25

For the compound CN1CCN2c3ccccc3Cc3ccccc3C2C1.Cl (configuration not stated) [MIANSERIN HYDROCHLORIDE] , the measured Population Pyknosed Nuclei (%) on U2OS was 10

For the compound CC(C)C[C@@H]1NC(=O)[C@@H](C(C)C)NC(=O)[C@@H]2CCCN2C(=O)[C@@H](CC(=O)O)NC(=O)[C@@H](Cc2c[nH]c3ccccc23)NC1=O [BQ-123] (cyclo(L[dW][dD]P[dV])) , the measured Population Pyknosed Nuclei (%) on U2OS was 7

For the compound O=c1nc2[nH]c3ccccc3nc-2c(=O)[nH]1 [ALLOXAZINE] , the measured Population Pyknosed Nuclei (%) on U2OS was 8

For the compound CCCCCCNC(=O)Nc1ccc(S(=O)(=O)Nc2ccc(CCNC[C@H](O)COc3ccc(O)cc3)cc2)cc1 [L-755507] , the measured Population Pyknosed Nuclei (%) on U2OS was 9

For the compound C=CCN1C[C@H](C(=O)N(CCCN(C)C)C(=O)NCC)C[C@@H]2c3cccc4[nH]cc(c34)C[C@H]21 [CABERGOLINE] , the measured Population Pyknosed Nuclei (%) on U2OS was 11
